Target: F protein of RSV (Long strain) (RSV (Long strain), UniProt P12568 26-574)
Sequence (P12568 26-574): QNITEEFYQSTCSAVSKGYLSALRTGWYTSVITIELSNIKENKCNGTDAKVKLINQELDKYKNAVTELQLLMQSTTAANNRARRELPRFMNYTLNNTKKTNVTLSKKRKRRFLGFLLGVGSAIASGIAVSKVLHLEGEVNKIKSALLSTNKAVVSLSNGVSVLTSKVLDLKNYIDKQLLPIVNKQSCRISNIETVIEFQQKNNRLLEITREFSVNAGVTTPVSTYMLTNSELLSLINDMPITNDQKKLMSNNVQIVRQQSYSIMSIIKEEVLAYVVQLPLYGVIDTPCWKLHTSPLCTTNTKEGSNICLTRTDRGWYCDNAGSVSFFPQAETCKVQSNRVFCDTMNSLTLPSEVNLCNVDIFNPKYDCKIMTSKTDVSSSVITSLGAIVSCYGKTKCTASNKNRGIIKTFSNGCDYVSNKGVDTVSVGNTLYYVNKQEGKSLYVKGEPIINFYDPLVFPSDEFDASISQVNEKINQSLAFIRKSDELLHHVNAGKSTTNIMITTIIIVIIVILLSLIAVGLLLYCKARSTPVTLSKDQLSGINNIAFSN
Test: cell-based or functional assay
Reported IC50 is given for each of the following binders.

A12a6 Fab (Fab, V domains shown) VH: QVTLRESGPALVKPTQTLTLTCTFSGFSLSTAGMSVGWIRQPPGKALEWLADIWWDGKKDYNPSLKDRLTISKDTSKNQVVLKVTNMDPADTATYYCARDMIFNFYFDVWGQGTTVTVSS VL: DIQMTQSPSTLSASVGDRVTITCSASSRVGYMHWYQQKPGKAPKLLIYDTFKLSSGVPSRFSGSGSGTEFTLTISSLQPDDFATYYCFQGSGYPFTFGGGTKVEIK :: 0.62 nM
A13a11 Fab (Fab, V domains shown) VH: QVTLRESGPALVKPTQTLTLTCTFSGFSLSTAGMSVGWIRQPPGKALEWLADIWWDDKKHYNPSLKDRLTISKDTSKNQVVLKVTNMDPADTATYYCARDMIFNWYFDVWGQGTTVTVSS VL: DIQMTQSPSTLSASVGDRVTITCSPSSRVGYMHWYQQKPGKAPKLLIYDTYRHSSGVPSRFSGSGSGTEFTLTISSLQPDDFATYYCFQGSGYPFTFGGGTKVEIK :: 2.04 nM

[ask] So what does the record say about IC50 for P11d4 Fab (Fab, V domains shown) VH: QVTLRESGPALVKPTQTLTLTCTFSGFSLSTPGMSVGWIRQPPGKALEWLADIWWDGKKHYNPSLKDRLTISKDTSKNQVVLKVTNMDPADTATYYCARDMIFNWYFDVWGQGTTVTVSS VL: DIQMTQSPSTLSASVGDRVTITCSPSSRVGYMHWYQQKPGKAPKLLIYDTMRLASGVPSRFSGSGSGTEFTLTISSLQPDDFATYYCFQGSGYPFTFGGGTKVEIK ?
[reply] > 20 nM
